Test system: UniProtKB P20309
Sequence (P20309 whole entry, looked up): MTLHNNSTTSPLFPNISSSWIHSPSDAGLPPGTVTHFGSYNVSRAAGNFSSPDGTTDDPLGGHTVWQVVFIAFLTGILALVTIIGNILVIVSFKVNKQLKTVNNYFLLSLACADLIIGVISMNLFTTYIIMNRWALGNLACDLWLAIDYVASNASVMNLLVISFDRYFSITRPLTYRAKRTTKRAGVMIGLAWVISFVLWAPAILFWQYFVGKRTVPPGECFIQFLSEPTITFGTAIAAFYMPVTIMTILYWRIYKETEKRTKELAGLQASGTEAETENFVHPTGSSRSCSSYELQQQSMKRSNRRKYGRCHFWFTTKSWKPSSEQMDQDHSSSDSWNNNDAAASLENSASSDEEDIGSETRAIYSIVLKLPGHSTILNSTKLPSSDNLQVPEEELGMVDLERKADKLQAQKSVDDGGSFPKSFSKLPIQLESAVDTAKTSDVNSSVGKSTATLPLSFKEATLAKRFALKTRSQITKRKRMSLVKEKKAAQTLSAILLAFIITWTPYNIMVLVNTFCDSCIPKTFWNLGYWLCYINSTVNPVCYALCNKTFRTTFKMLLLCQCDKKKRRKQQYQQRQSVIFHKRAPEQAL
Test summary: Evaluated for its MIPA (muscarinic-stimulated inositol phosphate accumulation) activity measured in SK-N-SH neuroblastoma cells expressing human muscarinic m3 receptor, compound run at 100 uM;100 uM of carbachol was used
Format: functional, cell-based
Classification by CCh | ranges: lower range: < 3%; middle range: ≥ 3% and < 20%; upper range: ≥ 20%

C#CCC#CCC#CCO/N=C1\CN2CCC1C2 (stereo not given)	lower range

Now for a further compound.
For this compound, which bin applies? C#CCC#CCO/N=C1\CN2CCC1C2 (stereo not given)
middle range

* * *

Test system: Muscarinic receptor M1 and M2 (Rattus norvegicus, UniProt P08482+P10980)
Test summary: Compound was evaluated for its inhibition of [3H]quinuclidinyl benzilate binding to label antagonist site (RQNB) in rat neocortex
Measurement type: log10(IC50) (log10 of the value in µM)
Remember, log10 of IC50, in µM.

Reference set, count: 3
CCC#CCO/N=C1\CN2CCC1C2 (stereo not given)	0.78
C[N+](C)(C)CC#CCOC(=O)Nc1cccc(Cl)c1.[Cl-]	0.72
Nc1noc(C2CN3CCC2C3)n1 (stereo not given)	-1.06

Entry under review: CCO/N=C1\CN2CCC1C2 (stereo not given) . Reported log10(IC50)?
0.49

Also C#CCO/N=C1\CN2CCC1C2 (stereo not given) ?
0.64

Also C#CC(C)O/N=C1\CN2CCC1C2 (stereo not given) ?
0.60

Also C#CCC#CCC#CCO/N=C1\CN2CCC1C2 (stereo not given) ?
-0.02

Also CC(C)(C)O/N=C1\CN2CCC1C2 (stereo not given) ?
0.55

* * *

Below: a set of entries, each annotated with reported log10 EC50.
Test system: Muscarinic acetylcholine receptor M1 (Homo sapiens, UniProt P11229)
Sequence (P11229 whole entry): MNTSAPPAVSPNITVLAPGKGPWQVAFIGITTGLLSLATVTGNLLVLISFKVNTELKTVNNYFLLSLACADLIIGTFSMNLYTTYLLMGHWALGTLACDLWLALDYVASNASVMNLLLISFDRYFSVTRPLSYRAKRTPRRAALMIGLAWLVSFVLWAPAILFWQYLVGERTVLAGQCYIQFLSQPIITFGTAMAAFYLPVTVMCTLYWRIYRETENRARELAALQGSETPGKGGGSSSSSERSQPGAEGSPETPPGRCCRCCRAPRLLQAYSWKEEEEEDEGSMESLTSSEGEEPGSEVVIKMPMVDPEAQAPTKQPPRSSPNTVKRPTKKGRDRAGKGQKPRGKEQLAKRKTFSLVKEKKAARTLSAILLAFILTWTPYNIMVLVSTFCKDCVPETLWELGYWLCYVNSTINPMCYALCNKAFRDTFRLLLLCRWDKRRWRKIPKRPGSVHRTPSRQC
Remember, log10 of EC50, in µM.

Entry under review: CC#CCC#CCO/N=C1\CN2CCC1C2 (stereo not given) . Reported log10 EC50?
0.70

Also CCCO/N=C1\CN2CCC1C2 (stereo not given) ?
1.43

Also Nc1noc(C2CN3CCC2C3)n1 (stereo not given) ?
2.00

Also C#CCO/N=C1\CN2CCC1C2 (stereo not given) ?
-0.05

Also C(#Cc1ccccc1)CO/N=C1\CN2CCC1C2 (stereo not given) ?
0.52

Also C#CCC#CCC#CCO/N=C1\CN2CCC1C2 (stereo not given) ?
0.71

Also CC#CCO/N=C1\CN2CCC1C2 (stereo not given) ?
0.28

Also CCC#CCO/N=C1\CN2CCC1C2 (stereo not given) ?
0.77

Also C#CCC#CCO/N=C1\CN2CCC1C2 (stereo not given) ?
0.67

Also C[N+](C)(C)CC#CCOC(=O)Nc1cccc(Cl)c1.[Cl-] ?
0.54

* * *

Below: a set of entries, each annotated with reported IC50.
Test system: UniProt P08172
Sequence (P08172 whole entry): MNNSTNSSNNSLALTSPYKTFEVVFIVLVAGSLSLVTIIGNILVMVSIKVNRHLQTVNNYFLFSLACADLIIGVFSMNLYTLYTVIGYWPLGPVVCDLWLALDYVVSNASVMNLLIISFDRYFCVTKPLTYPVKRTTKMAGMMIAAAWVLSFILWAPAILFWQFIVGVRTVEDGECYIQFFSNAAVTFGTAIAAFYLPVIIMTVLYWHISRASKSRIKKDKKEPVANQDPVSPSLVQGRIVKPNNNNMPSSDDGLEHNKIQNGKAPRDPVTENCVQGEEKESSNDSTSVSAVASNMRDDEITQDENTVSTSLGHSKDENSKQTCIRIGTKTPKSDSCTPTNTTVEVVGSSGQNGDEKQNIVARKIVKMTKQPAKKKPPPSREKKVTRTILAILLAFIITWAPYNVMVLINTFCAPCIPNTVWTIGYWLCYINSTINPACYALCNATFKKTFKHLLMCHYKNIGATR
Test summary: Inhibitory activity against human Muscarinic acetylcholine receptor M2 using [3H]quinuclidinyl benzilate to label antagonist site (RQNB) in CHO cells
Format: cell-based
# include the unit after the value

CC#CCC#CCO/N=C1\CN2CCC1C2 (stereo not drawn)	5.08 µM
CC(C)(C)O/N=C1\CN2CCC1C2 (stereo not drawn)	4.46 µM
CC(C)O/N=C1\CN2CCC1C2 (stereo not drawn)	3.15 µM

Entry under review: C#CCC#CCC#CCO/N=C1\CN2CCC1C2 (stereo not drawn) . Reported IC50?
2.18 µM

Also C#CC(C)O/N=C1\CN2CCC1C2 (stereo not drawn) ?
5.28 µM

Also C#CCCO/N=C1\CN2CCC1C2 (stereo not drawn) ?
15.6 µM

Also CCCO/N=C1\CN2CCC1C2 (stereo not drawn) ?
3.98 µM

Also Nc1noc(C2CN3CCC2C3)n1 (stereo not drawn) ?
0.02 µM

* * *

Test system: Muscarinic acetylcholine receptor M2 (Homo sapiens)
Sequence (P08172 whole entry): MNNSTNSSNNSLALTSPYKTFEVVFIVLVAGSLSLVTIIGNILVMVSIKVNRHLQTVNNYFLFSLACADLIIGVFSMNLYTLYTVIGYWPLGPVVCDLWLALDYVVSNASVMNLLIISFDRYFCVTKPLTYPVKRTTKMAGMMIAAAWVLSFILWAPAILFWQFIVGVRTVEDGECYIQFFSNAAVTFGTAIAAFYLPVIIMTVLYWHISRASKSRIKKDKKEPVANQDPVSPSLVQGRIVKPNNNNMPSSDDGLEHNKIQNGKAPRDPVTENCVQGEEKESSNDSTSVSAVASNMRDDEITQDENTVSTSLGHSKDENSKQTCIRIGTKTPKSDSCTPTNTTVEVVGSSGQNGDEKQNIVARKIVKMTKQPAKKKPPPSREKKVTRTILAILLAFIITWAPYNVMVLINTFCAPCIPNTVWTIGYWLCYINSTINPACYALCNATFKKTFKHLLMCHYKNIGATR
Test summary: Inhibitory activity against human Muscarinic acetylcholine receptor M2 using [3H]quinuclidinyl benzilate to label antagonist site (RQNB) in CHO cells
Assay type: cell-based
Measurement type: IC50

Reference set, count: 4
CCC#CCO/N=C1\CN2CCC1C2 (stereo not given)	8.6 µM
C#CCO/N=C1\CN2CCC1C2 (stereo not given)	1.04 µM
C(#Cc1ccccc1)CO/N=C1\CN2CCC1C2 (stereo not given)	25.8 µM
COCC#CCO/N=C1\CN2CCC1C2 (stereo not given)	59.3 µM

# input for lookup
Entry under review: C#CCC#CCO/N=C1\CN2CCC1C2 (stereo not given) . Reported IC50?
2.84 µM

* * *

Below: a set of entries, each annotated with reported IC50.
Test system: Muscarinic acetylcholine receptor M1 (Homo sapiens, UniProt P11229)
Sequence (P11229 whole entry): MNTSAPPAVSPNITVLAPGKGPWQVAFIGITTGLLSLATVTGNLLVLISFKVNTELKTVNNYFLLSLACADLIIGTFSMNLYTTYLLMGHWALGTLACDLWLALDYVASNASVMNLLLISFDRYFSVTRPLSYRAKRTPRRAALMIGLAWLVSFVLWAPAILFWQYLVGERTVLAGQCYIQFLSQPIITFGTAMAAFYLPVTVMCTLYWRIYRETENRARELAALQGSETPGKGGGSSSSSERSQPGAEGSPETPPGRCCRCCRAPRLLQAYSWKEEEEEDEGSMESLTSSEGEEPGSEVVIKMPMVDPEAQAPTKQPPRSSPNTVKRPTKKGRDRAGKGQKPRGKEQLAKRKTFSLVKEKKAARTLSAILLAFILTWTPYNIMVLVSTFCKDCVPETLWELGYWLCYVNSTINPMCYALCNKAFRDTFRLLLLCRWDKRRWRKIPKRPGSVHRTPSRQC
Assay type: functional, cell-based, CHO
Description: Inhibitory activity against human Muscarinic acetylcholine receptor M1 using [3H]quinuclidinyl benzilate to label antagonist site (RQNB) in CHO cells
# include the unit after the value

Reference set, count: 5
C#CCCO/N=C1\CN2CCC1C2 (stereo not drawn)	14.5 µM
CO/N=C1\CN2CCC1C2 (stereo not drawn)	85 µM
C=CCC#CCO/N=C1\CN2CCC1C2 (stereo not drawn)	9.44 µM
CCCCC#CCO/N=C1\CN2CCC1C2 (stereo not drawn)	7.89 µM
Nc1noc(C2CN3CCC2C3)n1 (stereo not drawn)	0.4 µM

# query: IC50 | item C#CC(C)O/N=C1\CN2CCC1C2 (stereo not drawn) | system: Muscarinic acetylcholine receptor M1 (Homo sapiens, UniProt P11229)
3.69 µM

Also CCCO/N=C1\CN2CCC1C2 (stereo not drawn) ?
3.68 µM

Also CCC#CCO/N=C1\CN2CCC1C2 (stereo not drawn) ?
4.9 µM
